target: Helios (Homo sapiens, UniProt Q96SW2+Q9UKS7); construct: fluorescently labelled antibodies against Helios and Ikaros; endogenous in cells; host or cells: Jurkat cells; assay: Helios Cellular Degradation Assay (flow cytometry, Helios-PE antibody staining, 72 h); type: cell-based; conditions: Jurkat cells, 72 h incubation, flow cytometry
Sequence (Q9UKS7 whole entry): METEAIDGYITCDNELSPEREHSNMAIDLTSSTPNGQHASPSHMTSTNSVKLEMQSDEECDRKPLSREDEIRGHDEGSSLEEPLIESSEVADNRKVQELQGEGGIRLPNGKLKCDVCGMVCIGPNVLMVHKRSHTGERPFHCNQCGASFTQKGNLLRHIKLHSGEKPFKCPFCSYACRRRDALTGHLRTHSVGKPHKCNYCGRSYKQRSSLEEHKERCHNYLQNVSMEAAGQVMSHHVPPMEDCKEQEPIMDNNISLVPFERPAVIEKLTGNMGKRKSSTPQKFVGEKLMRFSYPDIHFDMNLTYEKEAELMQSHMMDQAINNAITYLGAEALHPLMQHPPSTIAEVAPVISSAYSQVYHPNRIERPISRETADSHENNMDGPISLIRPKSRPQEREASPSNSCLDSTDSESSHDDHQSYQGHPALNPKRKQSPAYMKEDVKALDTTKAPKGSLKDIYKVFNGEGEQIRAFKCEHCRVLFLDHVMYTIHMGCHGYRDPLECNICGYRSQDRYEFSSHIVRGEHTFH
Sequence (Q96SW2 whole entry): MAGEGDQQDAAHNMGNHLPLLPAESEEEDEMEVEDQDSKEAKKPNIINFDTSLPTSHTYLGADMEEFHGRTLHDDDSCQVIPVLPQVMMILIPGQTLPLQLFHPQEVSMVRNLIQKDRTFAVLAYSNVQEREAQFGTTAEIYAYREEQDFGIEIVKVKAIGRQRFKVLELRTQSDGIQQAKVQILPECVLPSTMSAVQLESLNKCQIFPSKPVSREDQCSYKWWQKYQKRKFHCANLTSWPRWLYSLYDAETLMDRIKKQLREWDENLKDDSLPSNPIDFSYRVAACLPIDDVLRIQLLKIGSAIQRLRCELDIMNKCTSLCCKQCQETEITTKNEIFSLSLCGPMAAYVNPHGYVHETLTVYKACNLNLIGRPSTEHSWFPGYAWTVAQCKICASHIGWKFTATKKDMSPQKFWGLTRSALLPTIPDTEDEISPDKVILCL
Sequence (Q16531 whole entry partner): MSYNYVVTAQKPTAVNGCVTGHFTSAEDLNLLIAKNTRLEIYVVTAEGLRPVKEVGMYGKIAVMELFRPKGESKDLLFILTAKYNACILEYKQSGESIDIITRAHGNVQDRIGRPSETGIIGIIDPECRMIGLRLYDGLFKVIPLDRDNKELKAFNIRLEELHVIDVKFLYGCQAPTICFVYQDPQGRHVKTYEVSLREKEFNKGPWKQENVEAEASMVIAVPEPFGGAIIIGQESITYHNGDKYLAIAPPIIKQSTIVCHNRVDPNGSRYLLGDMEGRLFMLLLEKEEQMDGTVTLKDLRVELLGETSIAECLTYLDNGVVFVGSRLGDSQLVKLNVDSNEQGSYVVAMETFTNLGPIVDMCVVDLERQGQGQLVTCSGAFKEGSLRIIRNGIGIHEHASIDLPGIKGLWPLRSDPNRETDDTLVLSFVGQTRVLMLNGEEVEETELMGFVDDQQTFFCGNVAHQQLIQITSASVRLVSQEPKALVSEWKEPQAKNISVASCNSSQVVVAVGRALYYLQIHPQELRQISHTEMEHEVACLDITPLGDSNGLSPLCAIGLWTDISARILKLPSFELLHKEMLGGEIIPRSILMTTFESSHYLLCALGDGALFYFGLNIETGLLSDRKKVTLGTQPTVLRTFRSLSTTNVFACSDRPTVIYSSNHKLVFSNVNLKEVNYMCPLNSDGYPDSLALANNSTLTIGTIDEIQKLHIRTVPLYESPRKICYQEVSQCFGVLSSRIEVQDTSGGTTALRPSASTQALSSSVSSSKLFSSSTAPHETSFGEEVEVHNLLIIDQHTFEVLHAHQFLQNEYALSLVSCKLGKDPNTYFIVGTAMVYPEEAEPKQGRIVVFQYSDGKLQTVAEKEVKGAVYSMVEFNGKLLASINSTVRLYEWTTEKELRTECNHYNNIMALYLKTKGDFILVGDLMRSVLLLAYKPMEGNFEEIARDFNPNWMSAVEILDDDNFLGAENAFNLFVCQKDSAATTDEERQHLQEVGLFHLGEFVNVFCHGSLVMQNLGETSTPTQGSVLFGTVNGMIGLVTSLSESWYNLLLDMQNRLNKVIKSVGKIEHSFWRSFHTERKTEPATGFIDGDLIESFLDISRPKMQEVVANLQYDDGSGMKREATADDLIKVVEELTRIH
DC50: recorded values

# molecule, experimental system, value prefix, DC50, nM
data = [
    ("CN(CCC(F)(F)F)Cc1ccnc(-c2ccc3c(c2)CN(C2CCC(=O)NC2=O)C3=O)c1 (stereo not shown)", "Helios (Homo sapiens, UniProt Q96SW2+Q9UKS7)", "=", 6050),
    ("O=C1CCC(N2Cc3cc(-c4cc(CN5CCC5c5ccccc5)ccn4)ccc3C2=O)C(=O)N1 (single isomer, unassigned) [Example 205]", "Helios (Homo sapiens, UniProt Q96SW2+Q9UKS7)", ">", 10000),
    ("CN(Cc1ccoc1)Cc1ccnc(-c2ccc3c(c2)CN(C2CCC(=O)NC2=O)C3=O)c1 (stereo not shown)", "Helios (Homo sapiens, UniProt Q96SW2+Q9UKS7)", "=", 75),
    ("CC(=O)N1CCN(Cc2ccnc(-c3ccc4c(c3)CN(C3CCC(=O)NC3=O)C4=O)c2)CC1 (stereo not shown)", "Helios (Homo sapiens, UniProt Q96SW2+Q9UKS7)", ">", 10000),
    ("O=C1CCC(N2Cc3cc(-c4cc(CN5CCCCCC5)ccn4)ccc3C2=O)C(=O)N1 (stereo not shown)", "Helios (Homo sapiens, UniProt Q96SW2+Q9UKS7)", "=", 32),
    ("COC1(C)CN(Cc2ccnc(-c3ccc4c(c3)CN(C3CCC(=O)NC3=O)C4=O)c2)C1 (stereo not shown)", "Helios (Homo sapiens, UniProt Q96SW2+Q9UKS7)", "=", 45),
    ("Cc1ccc(CNCc2ccnc(-c3ccc4c(c3)CN(C3CCC(=O)NC3=O)C4=O)c2)cc1 (stereo not shown)", "Helios (Homo sapiens, UniProt Q96SW2+Q9UKS7)", "=", 9),
]

* * *

Dmax: recorded values
target: Ikaros (Homo sapiens); construct: fluorescently labelled antibodies against Helios and Ikaros; endogenous in cells; host or cells: Jurkat cells; assay: Helios Cellular Degradation Assay, Ikaros readout (flow cytometry, Ikaros-Alexa488 antibody staining, 72 h); assay type: cell-based; conditions: Jurkat, Jurkat cells, 72 h incubation, flow cytometry; read-out: Ikaros Dmax

# molecule, Dmax [%]
records = [
    ("CCCCNCc1ccnc(-c2ccc3c(c2)CN(C2CCC(=O)NC2=O)C3=O)c1 (stereo not shown)", 5),
    ("O=C1CCC(N2Cc3cc(-c4cc(CN5CCC(N6CCCC6)CC5)ccn4)ccc3C2=O)C(=O)N1 (stereo not shown)", 14),
    ("CN1CCN(Cc2ccnc(-c3ccc4c(c3)CN(C3CCC(=O)NC3=O)C4=O)c2)CC1 (stereo not shown)", 30),
    ("O=C1CCC(N2Cc3cc(-c4cc(CNCCCn5ccnc5)ccn4)ccc3C2=O)C(=O)N1 (stereo not shown)", 8),
]

* * *

biological target: Ikaros (Homo sapiens, UniProt Q13422); construct: fluorescently labelled antibodies against Helios and Ikaros; endogenous in cells; host or cells: Jurkat cells; assay: Helios Cellular Degradation Assay, Ikaros readout (flow cytometry, Ikaros-Alexa488 antibody staining, 72 h); type: cell-based; settings: Jurkat, Jurkat cells, 72 h incubation, flow cytometry; read-out: Ikaros Dmax
Sequence (Q13422 whole entry, one chain of several): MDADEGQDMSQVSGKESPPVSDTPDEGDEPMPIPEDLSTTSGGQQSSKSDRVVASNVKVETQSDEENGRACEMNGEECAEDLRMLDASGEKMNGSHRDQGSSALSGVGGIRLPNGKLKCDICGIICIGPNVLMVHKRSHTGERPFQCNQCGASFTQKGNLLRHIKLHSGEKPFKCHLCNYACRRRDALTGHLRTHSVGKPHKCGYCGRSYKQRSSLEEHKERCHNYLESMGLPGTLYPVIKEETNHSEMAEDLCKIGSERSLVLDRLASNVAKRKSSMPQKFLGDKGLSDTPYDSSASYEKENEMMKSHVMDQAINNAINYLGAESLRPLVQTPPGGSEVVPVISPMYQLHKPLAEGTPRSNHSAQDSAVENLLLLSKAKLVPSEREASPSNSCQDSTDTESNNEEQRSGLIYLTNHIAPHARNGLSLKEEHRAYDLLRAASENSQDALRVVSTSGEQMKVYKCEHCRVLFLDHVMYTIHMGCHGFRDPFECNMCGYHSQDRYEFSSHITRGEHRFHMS
Dmax: recorded values

# molecule, quantity unit, Dmax
measured = [
    ("O=C1CCC(N2Cc3cc(-c4cc(CNC5CCCC5)ccn4)ccc3C2=O)C(=O)N1 (stereo not shown)", "%", 20),
    ("O=C1CCC(N2Cc3cc(-c4cc(CNCCCN5CCOCC5)ccn4)ccc3C2=O)C(=O)N1 (stereo not shown)", "%", 2),
    ("C[C@H](c1ccccc1)N(C)Cc1ccnc(-c2ccc3c(c2)CN(C2CCC(=O)NC2=O)C3=O)c1 (stereo partly shown)", "%", 8),
    ("C[C@@H]1CCC[C@H](C)N1Cc1ccnc(-c2ccc3c(c2)CN(C2CCC(=O)NC2=O)C3=O)c1 (stereo partly shown)", "%", 3),
]

* * *

Target: Ikaros (Homo sapiens, UniProt Q13422)
Construct: fluorescently labelled antibodies against Helios and Ikaros; endogenous in cells; host or cells: Jurkat cells
Test: Helios Cellular Degradation Assay, Ikaros readout (flow cytometry, Ikaros-Alexa488 antibody staining, 72 h)
Type: cell-based
Conditions: Jurkat, Jurkat cells, 72 h incubation, flow cytometry; read-out: Ikaros Dmax
Description: Helios Cellular Degradation Assay Jurkat cells were plated at 80,000 cells/well in 40 μL RPMI+10% FBS in a 384 well cell culture plate prior to using acoustic dispensing technology for adding compound of interest. Cell cultures were incubated for 72 h at 37° C. and 5% CO2. […] Stained cells were resuspended in 25 μL of flow cytometry staining buffer (PBS+0.2% BSA) and analyzed using an Intellicyt Ique Plus flow cytometer. […]

# compound, Dmax, %
records = [
    ("O=C1CCC(N2Cc3cc(-c4cc(CN5CCN(Cc6ccc7c(c6)OCO7)CC5)ccn4)ccc3C2=O)C(=O)N1 (stereo not shown)", 16),
    ("O=C1CCC(N2Cc3cc(-c4cc(CN5CCOCC5)ccn4)ccc3C2=O)C(=O)N1 (stereo not shown)", 7),
    ("CC1(c2ccc(N)cc2)CCN(Cc2ccnc(-c3ccc4c(c3)CN(C3CCC(=O)NC3=O)C4=O)c2)CC1 (stereo not shown)", 19),
    ("CN(Cc1ccnc(-c2ccc3c(c2)CN(C2CCC(=O)NC2=O)C3=O)c1)CC1CCCC1 (stereo not shown)", 7),
    ("CN(C)C1CCN(Cc2ccnc(-c3ccc4c(c3)CN(C3CCC(=O)NC3=O)C4=O)c2)CC1 (stereo not shown)", 8),
    ("COc1ccc(CN(C)Cc2ccnc(-c3ccc4c(c3)CN(C3CCC(=O)NC3=O)C4=O)c2)cn1 (stereo not shown)", 20),
    ("O=C1CCC(N2Cc3cc(-c4cc(CNC5CCC5)ccn4)ccc3C2=O)C(=O)N1 (stereo not shown)", 15),
    ("O=C1CCC(N2Cc3cc(-c4cc(CNCCO)ccn4)ccc3C2=O)C(=O)N1 (stereo not shown)", 11),
    ("CN(C)C(=O)C1CN(Cc2ccnc(-c3ccc4c(c3)CN(C3CCC(=O)NC3=O)C4=O)c2)C1 (stereo not shown)", 22),
    ("O=C1CCC(N2Cc3cc(-c4cc(CN5CCS(=O)(=O)CC5)ccn4)ccc3C2=O)C(=O)N1 (stereo not shown)", 12),
    ("O=C1CCC(N2Cc3cc(-c4cc(CNCCc5ccc(O)cc5)ccn4)ccc3C2=O)C(=O)N1 (stereo not shown)", 25),
    ("O=C1CCC(N2Cc3cc(-c4cc(CN5CCc6ccccc6C5)ccn4)ccc3C2=O)C(=O)N1 (stereo not shown)", 6),
    ("CC1CC(NCc2ccnc(-c3ccc4c(c3)CN(C3CCC(=O)NC3=O)C4=O)c2)CCO1 (stereo not shown)", 22),
    ("O=C1CCC(N2Cc3cc(-c4cc(CN5CCC[C@@H]5c5ccccc5)ccn4)ccc3C2=O)C(=O)N1 (stereo partly shown)", 19),
    ("CC(C)OC1CN(Cc2ccnc(-c3ccc4c(c3)CN(C3CCC(=O)NC3=O)C4=O)c2)C1 (stereo not shown)", 13),
    ("CN(Cc1ccnc(-c2ccc3c(c2)CN(C2CCC(=O)NC2=O)C3=O)c1)Cc1ccc(F)c(F)c1 (stereo not shown)", 7),
]

* * *

biological target: Helios (Homo sapiens, UniProt Q96SW2+Q9UKS7); construct: fluorescently labelled antibodies against Helios and Ikaros; endogenous in cells; host or cells: Jurkat cells; experiment: Helios Cellular Degradation Assay (flow cytometry, Helios-PE antibody staining, 72 h); format: cell-based; conditions: Jurkat cells, 72 h incubation, flow cytometry

# molecule, experimental system, DC50
rows = [
    ("NC(=O)C1CCN1Cc1ccnc(-c2ccc3c(c2)CN(C2CCC(=O)NC2=O)C3=O)c1 (stereo not shown) [Example 206]", "Helios (Homo sapiens, UniProt Q96SW2+Q9UKS7)", "0.74 µM"),
    ("O=C1CCC(N2Cc3cc(-c4cc(CNCCCn5ccnc5)ccn4)ccc3C2=O)C(=O)N1 (stereo not shown) [Example 113]", "Helios (Homo sapiens, UniProt Q96SW2+Q9UKS7)", "0.287 µM"),
    ("CN(Cc1ccc(Cl)cc1)Cc1ccnc(-c2ccc3c(c2)CN(C2CCC(=O)NC2=O)C3=O)c1 (stereo not shown) [Example 154]", "Helios (Homo sapiens, UniProt Q96SW2+Q9UKS7)", "3.26 µM"),
    ("O=C1CCC(N2Cc3cc(-c4cc(CNC5CCCC5)ccn4)ccc3C2=O)C(=O)N1 (stereo not shown) [Example 86]", "Helios (Homo sapiens, UniProt Q96SW2+Q9UKS7)", "0.019 µM"),
]

* * *

Biological target: Helios (Homo sapiens, UniProt Q96SW2+Q9UKS7)
Construct: fluorescently labelled antibodies against Helios and Ikaros; endogenous in cells; host or cells: Jurkat cells
Experiment: Helios Cellular Degradation Assay (flow cytometry, Helios-PE antibody staining, 72 h)
Type: cell-based
Details: Jurkat, read-out: Helios Dmax
Protocol: Helios Cellular Degradation Assay Jurkat cells were plated at 80,000 cells/well in 40 μL RPMI+10% FBS in a 384 well cell culture plate prior to using acoustic dispensing technology for adding compound of interest. Cell cultures were incubated for 72 h at 37° C. and 5% CO2. […] Stained cells were resuspended in 25 μL of flow cytometry staining buffer (PBS+0.2% BSA) and analyzed using an Intellicyt Ique Plus flow cytometer. […]
Dmax: recorded values
readout kind: Dmax (%)

# molecule, quantity unit, measured result
rows = [
    ("O=C1CCC(N2Cc3cc(-c4cc(CN5CCC(n6c(=O)[nH]c7ccccc76)CC5)ccn4)ccc3C2=O)C(=O)N1 (stereo not shown)", "%", 59),
    ("CN(Cc1cccc(C(F)(F)F)c1)Cc1ccnc(-c2ccc3c(c2)CN(C2CCC(=O)NC2=O)C3=O)c1 (stereo not shown)", "%", 75),
    ("CC1(c2ccc(N)cc2)CCN(Cc2ccnc(-c3ccc4c(c3)CN(C3CCC(=O)NC3=O)C4=O)c2)CC1 (stereo not shown)", "%", 77),
    ("CC(C)(C)NCc1ccnc(-c2ccc3c(c2)CN(C2CCC(=O)NC2=O)C3=O)c1 (stereo not shown)", "%", 71),
]
